Data provenance: PubChem BioAssay AID1159580

Experiment: chemical genetic growth profiling, strain panel (AID 1159580);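 also: tested at 20 µM; growth read once vehicle control cultures reached saturation at 30 °C; 1 = growth at the plate median or of vehicle wells; lower values mean less growth of the strain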
Conditions: S. cerevisiae deletion strains, growth OD, locus YER155C, strain BEM2 (second series), active compounds read low
The campaign covered roughly 5,500 compounds. About 2,000 (36%) were called active. About 18% were inconclusive and are not listed. The list shows a part of the results.
Assay Readout: normalized growth
The answer should be a number; do not append a unit.

Example cases with answers are listed next.
>  <Molecule>
CC(C)(C)NC[C@@H](O)COc1nsnc1N1CCOCC1

>  <normalized growth>
1.01

$$$$
>  <Molecule>
C[C@H]1[C@H]2CCC3C4CC=C5C[C@@H](N(C)C)CC[C@]5(C)C4CC[C@@]32CN1C (stereo partly specified)

>  <normalized growth>
0.867

$$$$
>  <Molecule>
CC(C)=CCC[C@](C)(O)C1CC=C(C)CC1 (stereo partly specified)

>  <normalized growth>
0.985

$$$$
>  <Molecule>
CO[C@H]1/C=C/O[C@@]2(C)Oc3c(C)c(O)c4c(O)c(c5c(nc6cc(C)ccn65)c4c3C2=O)NC(=O)/C(C)=C\C=C\[C@H](C)[C@H](O)[C@@H](C)C(O)[C@@H](C)[C@H](OC(C)=O)[C@@H]1C (stereo partly specified)

>  <normalized growth>
1.02

$$$$
>  <Molecule>
Nc1ccc(S(=O)(=O)Nc2ccc(Cl)nn2)cc1

>  <normalized growth>
1

$$$$

What measured normalized growth goes with O=C(O)C1=CCNCC1 ? 1.05

What measured normalized growth goes with O=C(NC(=O)c1c(F)cccc1F)Nc1ccc(Cl)cc1 ? 1.02

What measured normalized growth goes with CC(=O)Nc1ccc(S(=O)(=O)c2ccc(NC(C)=O)cc2)cc1 ? 1.04

What measured normalized growth goes with N[C@@H](Cc1ccc(O)c(O)c1)C(=O)O ? 0.988

What measured normalized growth goes with COC(=O)C[C@H]1C(C)(C)C(=O)[C@@H]2CC3=C4CC(=O)O[C@@H](c5ccoc5)[C@]4(C)CCC3[C@@]1(C)C2=O (stereo partly specified) ? 1

What measured normalized growth goes with Nc1ncnc2c1ncn2C1C[C@H](O)[C@@H](CO)O1 (stereo partly specified) ? 1.03

What measured normalized growth goes with CCN(CC)CCNC(=O)c1cc(S(C)(=O)=O)ccc1OC ? 0.978
